Biological target: Adenosine receptor A3 (Rattus norvegicus)
Sequence (whole entry): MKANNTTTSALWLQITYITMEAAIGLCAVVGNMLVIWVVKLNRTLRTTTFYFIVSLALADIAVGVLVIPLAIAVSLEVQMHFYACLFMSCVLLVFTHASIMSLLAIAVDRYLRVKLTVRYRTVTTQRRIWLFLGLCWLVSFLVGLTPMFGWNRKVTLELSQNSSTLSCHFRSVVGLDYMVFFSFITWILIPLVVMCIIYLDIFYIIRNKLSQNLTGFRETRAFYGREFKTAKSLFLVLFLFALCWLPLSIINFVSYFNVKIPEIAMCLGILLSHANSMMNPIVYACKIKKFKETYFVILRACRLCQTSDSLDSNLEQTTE
Test: Displacement of [3H]NECA from recombinant rat adenosine receptor A3 expressed in CHO cell membranes at 1 uM
MEASURED_PARAMETER: inhibition (%)

Answered cases to consult:
SMILES_DATA	READOUT_UNITS	inhibition
CCCCn1c(=O)c2c(nc3n2CCCN3c2ccc(OCCN3CCCC3)cc2)n(CCCC)c1=O	%	20
CCCCn1c(=O)c2c(nc3n2CCCN3c2ccc(OCCN(C)C)cc2)n(CCCC)c1=O	%	15
CCCCn1c(=O)c2c(nc3n2CCCN3CCc2ccc(OCCN(CC)CC)cc2)n(CCCC)c1=O	%	15

[P] CCn1c(=O)c2c(nc3n2CCCN3CCc2ccc(O)cc2)n(CC)c1=O
[Q] CCN(CC)CCOc1ccc(CCN2CCCn3c2nc2c3c(=O)n(C)c(=O)n2C)cc1
Query block: Form field 'greater inhibition' accepts P or Q ; which applies? Let me know the label of the one you choose.
Result block: P

====

target: Adenosine receptor A3 (Rattus norvegicus) (UniProt P28647); test: Displacement of [3H]NECA from recombinant rat adenosine receptor A3 expressed in CHO cell membranes at 1 uM
MEASURED_PARAMETER: inhibition (%)

SMILES_DATA	ASSAY_SYSTEM	inhibition, %
CCCCn1c(=O)c2c(nc3n2CCCN3c2ccc(OCCN3CCCCC3)cc2)n(CCCC)c1=O	Adenosine receptor A3 (Rattus norvegicus) (UniProt P28647)	20

[A] CCCn1c(=O)c2c(nc3n2CCCN3c2ccc(OCCN3CCCC3)cc2)n(CCC)c1=O
[B] CCCCn1c(=O)c2c(nc3n2CCCN3c2ccc(OCCN(CC)CC)cc2)n(CCCC)c1=O
Query block: Look at A and B . Which one has the lower recorded inhibition number? Answer by stating the label of the chosen item.
Result block: A
(A: 10%, B: 16%)

====

biological target: Adenosine receptor A2a (Homo sapiens, UniProt P29274); test: Displacement of [3H]MSX2 from recombinant human adenosine receptor A2a expressed in CHO cell membranes at 1 uM
Sequence (P29274 whole entry): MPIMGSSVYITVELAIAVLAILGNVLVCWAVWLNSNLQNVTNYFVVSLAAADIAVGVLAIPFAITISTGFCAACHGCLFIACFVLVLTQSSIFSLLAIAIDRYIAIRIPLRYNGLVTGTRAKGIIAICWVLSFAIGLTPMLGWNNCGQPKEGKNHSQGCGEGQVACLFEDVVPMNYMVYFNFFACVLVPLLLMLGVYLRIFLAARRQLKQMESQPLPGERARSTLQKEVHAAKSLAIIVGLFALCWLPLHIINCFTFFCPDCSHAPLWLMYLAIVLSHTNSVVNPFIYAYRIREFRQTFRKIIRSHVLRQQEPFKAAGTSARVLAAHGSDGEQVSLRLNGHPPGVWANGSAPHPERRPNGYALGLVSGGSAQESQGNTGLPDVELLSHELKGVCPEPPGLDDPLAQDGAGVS
MEASURED_PARAMETER: inhibition (%)

A selection of reference data follows.
SMILES_DATA	REPORTED
CCN(CC)CCOc1ccc(CCN2CCCn3c2nc2c3c(=O)n(C)c(=O)n2C)cc1	57
CCCn1c(=O)c2c(nc3n2CCCN3c2ccc(OCCN3CCCC3)cc2)n(CCC)c1=O	10
CCCCn1c(=O)c2c(nc3n2CCCN3c2ccc(OCCN(CC)CC)cc2)n(CCCC)c1=O	54
CCCCn1c(=O)c2c(nc3n2CCCN3c2ccc(OCCN3CCCC3)cc2)n(CCCC)c1=O	68
CCCCn1c(=O)c2c(nc3n2CCCN3c2ccc(OCCN(C)C)cc2)n(CCCC)c1=O	52
CCCCn1c(=O)c2c(nc3n2CCCN3c2ccc(OCCN3CCCCC3)cc2)n(CCCC)c1=O	53

[a] CCCCn1c(=O)c2c(nc3n2CCCN3CCc2ccc(OCCN(CC)CC)cc2)n(CCCC)c1=O
[b] CCn1c(=O)c2c(nc3n2CCCN3CCc2ccc(O)cc2)n(CC)c1=O
Query block: Lab notebook, comparison: a versus b , higher inhibition goes to which? Reply briefly: the label of your chosen item.
Result block: a
